# System: transient receptor potential cation channel C4 beta (TRPC4), mouse
# procedure-details: TRPC4 cation channel opening, second retest – cell-based, second round, Fluo4, HEK293 TRPC4beta/mu-opioid, 1 µM, confirmation (AID 2461)
# measurement-context: Fluo4 calcium fluorescence, at 1 µM
Activity calls are given as the source filed them.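 The calls were made as follows: active = primary screen active and over 50% activation in each of two duplicate runs; inactive = the rest.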
Field 'call' accepts Yes for active, No for inactive

Look over these answered cases.
compound	group-label
OC1(c2ccc(Br)cc2)CN(c2ccccc2)C2=[N+]1CCS2 (stereo not drawn)	No
O=C(Nc1cnn(C23CC4CC(CC(C4)C2)C3)c1)c1cnn2cccnc12	No
COC(=O)C1=C(C)NC2=C(C(=O)c3ccccc32)C1c1ccc(-c2ccc(C(=O)O)cc2)o1 (stereo not drawn)	No
CCn1c(N2CCN(CC(=O)Nc3cccc(C)c3C)CC2)nc2ccccc21	Yes
OCCC1CN(Cc2ccccc2-c2ccco2)CCN1Cc1ccccc1 (stereo not drawn)	No

**Query** Which outcome was assigned to `Cc1ccc(C[n+]2cc(-c3ccc(Cl)cc3)n3c2CCC3)cc1` in this test?
**Result** No

**Query** Which outcome was assigned to `NC(=O)c1ccc(Oc2ccc3c(c2)CCC3)c([N+](=O)[O-])c1` in this test?
**Result** No

###

# Test system: TRPC4 beta (transient receptor potential cation channel C4), mouse
# procedure-details: potentiation of DAMGO EC20 TRPC4 response – cell-based, Fluo-4, HEK293 TRPC4beta/mu-opioid, confirmation (AID 2555)
# measurement-context: DAMGO EC20, Fluo-4 calcium flux, at 10 µM
Calls of active or inactive are those of the source.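 Rule for the calls: active = primary screen hit whose calcium fluorescence ratio, in both repeats, exceeds the weak agonist control mean by 3 SD; inactive = the rest.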
Field 'call' accepts active, inactive

Look over these answered cases.
compound	group-label
CCOc1cc2[nH]c(=S)n(C3CC3)c(=O)c2cc1OCC	inactive
C1CCN(c2nc(N3CCCCC3)nc(N3CCNCC3)n2)CC1	inactive
CN1C(CC(=O)Nc2ccc(Br)cc2)c2ccccc2CC1(C)C (stereo not given)	inactive
Cn1c(=O)n(CCCO)c(=O)c2c1nc1n2CCCN1Cc1ccccc1	inactive
CCOc1cc(O)c(-c2[nH]ncc2-c2nc(C)cs2)cc1CC	active
COC(=O)C(CC(=O)Nc1cc(C)ccc1C)Nc1ccccc1OC (stereo not given)	inactive

**Query** Which outcome was assigned to `COc1cc(S(=O)(=O)N2CCC(N3CCCCC3)CC2)ccc1-n1cnnn1` in this test?
**Result** active

**Query** Which outcome was assigned to `COc1ccc(-n2c3c(cc(C(=O)NCc4ccco4)c2=O)C(=O)CC(C)(C)C3)cc1` in this test?
**Result** inactive

**Query** Which outcome was assigned to `Cc1ncsc1CCOC(=O)C12CC3CC(CC(C3)C1)C2` in this test?
**Result** inactive

**Query** Which outcome was assigned to `CC(C)Cc1nc(N2CCOCC2)c(C#N)c2c1CCC2` in this test?
**Result** inactive

###

# system-name: Short transient receptor potential channel 6 (Mus musculus)
# procedure-details: TRPC6 blockade by TRPC4 inhibitor hits – cell-based, HEK293, membrane potential dye, duplicate, selectivity assay for TRPC4 inhibitor project, confirmation (AID 434948)
# measurement-context: HEK293 TRPC6, membrane potential dye fluorescence, at 10 µM, stimulated with maximal-effect acetylcholine
Active and inactive are the calls of the source.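 How the source made its calls: active means active in primary screen and both duplicates, each dropping signal beyond three positive-control SD with fluorescence still positive; inactive means the rest.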
Field 'call' accepts 1.0 (active), 0.0 (inactive)

compound	group-label
O=C(Nc1c(F)cc(F)cc1Br)c1cc(-c2ccc(O)cc2)on1	0.0
CCC(=O)c1cc2c(C)cc(=O)oc2c(C)c1OC(=O)C(C)C	0.0
CCc1ccc2nc3nc(C)cc(C)c3c(N)c2c1	1.0
O=C(CN1CCCCC1)N=Nc1c(O)[nH]c2ccccc12	0.0
Cc1cc(C)nc(Nc2nc(=O)c3ccccc3s2)n1	0.0
COc1ccc(NC(C)=O)cc1NC(C)C(=O)Nc1cc(C(F)(F)F)ccc1N1CCOCC1 (configuration not stated)	0.0

Switching to the query record.
**Query** Which outcome was assigned to COc1ccc(C(CNC(=O)C(Cc2ccccc2)NC(N)=O)N(C)C)cc1 (configuration not stated) in this test?
**Result** 0.0

Where do the numbers come from? From PubChem BioAssay.
